Biological target: JAK2 JH1 WT (T842-G1132) (Homo sapiens, UniProt O60674)
Construct: *JAK2 JH1 WT (T842-G1132) N-His60-avi-TEV; His6 (N); TEV cleavage site (N); purchased Biortus
Sequence (O60674 842-1132): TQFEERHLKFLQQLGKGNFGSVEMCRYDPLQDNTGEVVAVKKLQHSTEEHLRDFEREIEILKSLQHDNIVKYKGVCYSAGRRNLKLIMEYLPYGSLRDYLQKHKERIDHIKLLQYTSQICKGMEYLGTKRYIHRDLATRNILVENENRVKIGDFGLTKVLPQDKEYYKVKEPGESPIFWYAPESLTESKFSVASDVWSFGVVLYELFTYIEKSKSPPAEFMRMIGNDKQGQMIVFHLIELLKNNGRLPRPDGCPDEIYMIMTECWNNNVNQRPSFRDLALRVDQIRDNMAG
Assay: Surface Plasmon Resonance (SPR) binding assay, JAK2 JH1 domain
Conditions: SPR, JAK2 JH1 domain
valueType: Kd

CNC(=O)c1nnc(NC(=O)C2CC2)cc1Nc1cccc(-c2ccc(C(=O)N(C)Cc3ccn(C)n3)c(C#N)c2)c1OC [Compound 119]	5 to 100 µM

**Q:** Which value of Kd has been reported for CNC(=O)c1nnc(NC(=O)C2CC2)cc1Nc1cccc(-c2cnc(C(=O)N(C)Cc3ccn(C)n3)c(C#N)c2)c1OC [Compound 92] in the records?
**A:** 5 to 100 µM

Entry source: patent US20240368122A1
